The values you see were collected from patent US20220040297A1.

test.target: CD3ε homodimer protein (human, UniProt P07766 23-126, limits assumed)
Sequence (P07766 23-126 limits assumed): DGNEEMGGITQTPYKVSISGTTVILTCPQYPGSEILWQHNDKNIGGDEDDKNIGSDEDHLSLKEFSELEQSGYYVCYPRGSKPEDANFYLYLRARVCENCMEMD
assay.remarks: SPR, immobilized CD3ε homodimer;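 also: biacore T200 surface plasmon resonance at 25 °C, antibody variants flowed as analytes over amine-coupled CD3ε homodimer on a CM4 chip, variant binding amount divided by that of GLS3000 antibody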
# label = yes if ratio of amounts bound (vs GLS3000) < 0.8 else no

For GLS3000 S25M (antibody, name in Kabat numbering, V domains shown, one-arm format as m2) VH: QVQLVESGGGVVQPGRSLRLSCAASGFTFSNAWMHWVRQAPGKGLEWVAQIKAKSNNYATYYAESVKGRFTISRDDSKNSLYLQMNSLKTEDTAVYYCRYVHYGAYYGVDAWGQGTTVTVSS VL: DIVMTQSPLSLPVTPGEPASISCRMSQSLVHSNRNTYLHWYQQKPGQAPRLLIYKVSNRFSGVPDRFSGSGSGTDFTLKISRVEAEDVGVYYCGQGTQVPYTFGQGTKLEIK , is the recorded ratio of amounts bound (vs GLS3000) below the cut-off of 0.8?
yes

Take the binder GLS3000 R24D (antibody, name in Kabat numbering, V domains shown, one-arm format as m2) VH: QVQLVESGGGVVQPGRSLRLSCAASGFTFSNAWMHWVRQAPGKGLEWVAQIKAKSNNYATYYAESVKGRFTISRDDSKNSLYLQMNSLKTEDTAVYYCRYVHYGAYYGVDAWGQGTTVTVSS VL: DIVMTQSPLSLPVTPGEPASISCDSSQSLVHSNRNTYLHWYQQKPGQAPRLLIYKVSNRFSGVPDRFSGSGSGTDFTLKISRVEAEDVGVYYCGQGTQVPYTFGQGTKLEIK and say whether its ratio of amounts bound (vs GLS3000) is less than 0.8.
yes

Criterion: ratio of amounts bound (vs GLS3000) strictly below 0.8. Is it met by GLS3000 S56D (antibody, name in Kabat numbering, V domains shown, one-arm format as m2) VH: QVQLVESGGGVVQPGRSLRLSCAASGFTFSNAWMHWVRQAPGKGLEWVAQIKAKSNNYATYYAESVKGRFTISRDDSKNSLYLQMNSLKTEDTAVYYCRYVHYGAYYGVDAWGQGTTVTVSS VL: DIVMTQSPLSLPVTPGEPASISCRSSQSLVHSNRNTYLHWYQQKPGQAPRLLIYKVSNRFDGVPDRFSGSGSGTDFTLKISRVEAEDVGVYYCGQGTQVPYTFGQGTKLEIK ?
yes

ratio of amounts bound (vs GLS3000) strictly < 0.8 for this binder? GLS3000 S52A (antibody, name in Kabat numbering, V domains shown, one-arm format as m2) VH: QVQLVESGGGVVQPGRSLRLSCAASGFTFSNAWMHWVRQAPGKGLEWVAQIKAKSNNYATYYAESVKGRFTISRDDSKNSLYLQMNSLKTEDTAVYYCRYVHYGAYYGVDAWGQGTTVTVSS VL: DIVMTQSPLSLPVTPGEPASISCRSSQSLVHSNRNTYLHWYQQKPGQAPRLLIYKVANRFSGVPDRFSGSGSGTDFTLKISRVEAEDVGVYYCGQGTQVPYTFGQGTKLEIK
no

Report whether reported ratio of amounts bound (vs GLS3000) is lower than 0.8 (strictly) for GLS3000 R54D (antibody, name in Kabat numbering, V domains shown, one-arm format as m2) VH: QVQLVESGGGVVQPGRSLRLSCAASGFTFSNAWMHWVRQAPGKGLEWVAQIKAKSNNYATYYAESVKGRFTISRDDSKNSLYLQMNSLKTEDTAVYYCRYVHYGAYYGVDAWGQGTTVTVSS VL: DIVMTQSPLSLPVTPGEPASISCRSSQSLVHSNRNTYLHWYQQKPGQAPRLLIYKVSNDFSGVPDRFSGSGSGTDFTLKISRVEAEDVGVYYCGQGTQVPYTFGQGTKLEIK
yes
